- assay method text: yeast growth toxicity, wild-type and mutant, primary screen, cytotoxicity control for eIF2B function restoration project, wild-type and eIF2Bepsilon R284H mutant, A595 (AID 685)
- condition context: S. cerevisiae eIF2Bepsilon-R284H mutant growth, A595 turbidity, 16 h; stronger effect = higher value; screened at 25 µM (by protocol)
Among all 30,000 compounds or so, about 80 (0.3%) were called active. The sample as a whole holds a higher share of actives than the screen did.
If the reported growth inhibition equals or exceeds 10%, assign Criterion met. If not, assign Criterion not met.

# compound, class name
records = [
    ("COC(=O)c1c(C)c(C)nc(N)c1C#N", "Criterion not met"),
    ("CCOC(=O)C1=C(CSc2nccn2C)NC(=O)NC1c1ccc(OC)cc1 (stereo unspecified)", "Criterion not met"),
    ("O=C(O)c1cc2ccccc2c(=O)s1", "Criterion not met"),
    ("CCN1CCCC1Cn1cnc2c([nH]c3cc(OC)ccc32)c1=O (stereo unspecified)", "Criterion not met"),
    ("O=S(=O)(NCC1OCCc2ccccc21)c1ccccc1 (stereo unspecified)", "Criterion met"),
    ("CC1CC2=C(CC1/C=N/NC(N)=S)C(C)(C)CCC2 (stereo unspecified)", "Criterion met"),
    ("Cc1cc(-c2ccccc2)nc(N2CCC(C(=O)NC34CC5CC(CC(C5)C3)C4)CC2)n1", "Criterion not met"),
    ("CCNC(=O)c1sccc1-n1cccc1", "Criterion met"),
    ("Cc1ccc(-n2ccc(=O)c(C(=O)O)n2)cc1", "Criterion met"),
    ("COC(=O)c1sc(=S)n(-c2ccc(Cl)cc2)c1C", "Criterion met"),
    ("CCCCN(CC)CCNC(=O)c1[nH]c(C)c(C(C)=O)c1C", "Criterion met"),
    ("Cc1cc(NC(=O)CN2CCCC(C)C2)n(-c2nc3ccccc3s2)n1 (stereo unspecified)", "Criterion not met"),
    ("CCCCNC(=O)OC(C)CNC(=O)OC (stereo unspecified)", "Criterion met"),
    ("COc1ccc(O)c(C(=O)c2cnc3onc(C(C)C)c3c2)c1", "Criterion not met"),
    ("Cc1ccc(S(=O)(=O)N(c2cccc(C)c2)C2CCS(=O)(=O)C2)cc1 (stereo unspecified)", "Criterion not met"),
    ("COc1cc2c(cc1OC)C(C(C)C)=NC(C)(C)C2", "Criterion not met"),
    ("OC(CNCC1CCCO1)Cn1c2ccc(Br)cc2c2cc(Br)ccc21 (stereo unspecified)", "Criterion met"),
    ("CCOC(=O)c1ccc(N2C(=O)CC(Sc3nc(O)c(CC)c(=O)[nH]3)C2=O)cc1 (stereo unspecified)", "Criterion not met"),
    ("CCCCOc1ccc(N(CC(=O)NCC2CCCO2)C(=O)CCC(=O)Nc2cc(C)ccn2)cc1 (stereo unspecified)", "Criterion not met"),
    ("Cc1ccc(C2C(C#N)C(C#N)N3CCCN23)cc1 (stereo unspecified)", "Criterion met"),
    ("Cc1cc(=O)[nH]c(SCC(=O)N2c3ccccc3CC2C)n1 (stereo unspecified)", "Criterion not met"),
    ("COc1cc(S(=O)(=O)N(Cc2cccs2)C2CC2)ccc1-n1cnnn1", "Criterion not met"),
    ("Cc1cccc(NC(=O)C2CCCN2S(=O)(=O)c2ccc(F)cc2)c1C (stereo unspecified)", "Criterion met"),
    ("CC(c1ccco1)N(C(=O)COc1ccccc1[N+](=O)[O-])c1ccccn1 (stereo unspecified)", "Criterion not met"),
    ("CCCCSc1[nH]c(=O)c(C(=O)OCC)cc1C#N", "Criterion not met"),
    ("Cc1[nH][nH]c(=O)c1N=Nc1ccccc1", "Criterion not met"),
    ("CCOc1ccc(S(=O)(=O)NCCSc2ccccc2)cc1", "Criterion met"),
    ("COc1ccc(-c2cc(C(F)(F)F)nc(NCc3cccnc3)n2)cc1", "Criterion met"),
    ("COc1ccc(-c2cc(C)nc3nc(N)nn23)cc1", "Criterion met"),
    ("COC(=O)C1CCN(CC(N)=O)CC1", "Criterion met"),
    ("CN(Cc1ccccc1)C(=O)COc1ccccc1", "Criterion met"),
    ("CCOc1cc(NC(=O)c2cnccn2)c(OCC)cc1NC(=O)c1ccc(C)cc1", "Criterion not met"),
    ("O=C(CCc1ccccc1)NCc1cccnc1", "Criterion not met"),
    ("CCOc1ccc(NC(=O)CCS(=O)(=O)c2ccc3c(c2)CCCN3C(=O)CC)cc1", "Criterion met"),
    ("Cc1ccccc1-c1nnc(SCC(=O)NCc2ccc3c(c2)OCO3)n1C", "Criterion not met"),
]

Source: PubChem BioAssay AID685
